Kindly supply the reported total protein half-life in vivo values for the records listed here.
- experimental-protocol: total protein half-life in vivo (active degradation + dilution); higher = more stable protein
- test-conditions: wild type E. coli NCM3722; growth: P-lim chemostat; doubling time 6 h
One number for each entry, in h.

Sample records with total protein half-life in vivo:
MKKIGVILSGCGVYDGSEIHEAVLTLLAISRSGAQAVCFAPDKQQVDVINHLTGEAMTETRNVLIEAARITRGEIRPLAQADAAELDALIVPGGFGAAKNLSNFASLGSECTVDRELKALAQAMHQAGKPLGFMCIAPAMLPKIFDFPLRLTIGTDIDTAEVLEEMGAEHVPCPVDDIVVDEDNKIVTTPAYMLAQNIAEAASGIDKLVSRVLVLAE [P0ABU5] ... 5.67
MRRTFIKKEGVVITTLARYLLGEKCGNRLKTIDELANECRSSVGLTQAALKTLESSGAIRIERRGRNGSYLVEMDNKALLTHVDINNVVCAMPLPYTRLYEGLASGLKAQFDGIPFYYAHMRGADIRVECLLNGVYDMAVVSRLAAESYLTQKGLCLALELGPHTYVGEHQLICRKGESANVKRVGLDNRSADQKIMTDVFFGGSDVERVDLSYHESLQRIVKGDVDAVIWNVVAENELTMLGLEATPLTDDPRFLQATEAVVLTRVDDYPMQQLLRAVVDKHALLAHQQRVVSGEQEPSY ... 5.17

Turning now to a further record.
Return reported total protein half-life in vivo. Input sequence: MQKVVLATGNVGKVRELASLLSDFGLDIVAQTDLGVDSAEETGLTFIENAILKARHAAKVTALPAIADDSGLAVDVLGGAPGIYSARYSGEDATDQKNLQKLLETMKDVPDDQRQARFHCVLVYLRHAEDPTPLVCHGSWPGVITREPAGTGGFGYDPIFFVPSEGKTAAELTREEKSAISHRGQALKLLLDALRNG 5.14

----------
Kindly supply the reported total protein half-life in vivo values for the records listed here.
- experimental-protocol: total protein half-life in vivo (active degradation + dilution); higher = more stable protein
- test-conditions: wild type E. coli NCM3722; growth: C-lim chemostat; doubling time 6 h
One number for each entry, in h.

Sample records with total protein half-life in vivo:
MDLNTLISQYGYAALVIGSLAEGETVTLLGGVAAHQGLLKFPLVVLSVALGGMIGDQVLYLCGRRFGGKLLRRFSKHQDKIERAQKLIQRHPYLFVIGTRFMYGFRVIGPTLIGASQLPPKIFLPLNILGAFAWALIFTTIGYAGGQVIAPWLHNLDQHLKHWVWLILVVVLVVGVRWWLKRRGKKKPDHQA ... 5.72
MAKNYYDITLALAGICQSARLVQQLAHQGHCDADALHVSLNSIIDMNPSSTLAVFGGSEANLRVGLETLLGVLNASSRQGLNAELTRYTLSLMVLERKLSSAKGALDTLGNRINGLQRQLEHFDLQSETLMSAMAAIYVDVISPLGPRIQVTGSPAVLQSPQVQAKVRATLLAGIRAAVLWHQVGGGRLQLMFSRNRLTTQAKQILAHLTPEL ... 5.87
MKTLIVSTVLAFITFSAQAAAFQVTSNEIKTGEQLTTSHVFSGFGCEGGNTSPSLTWSGVPEGTKSFAVTVYDPDAPTGSGWWHWTVVNIPATVTYLPVDAGRRDGTKLPTGAVQGRNDFGYAGFGGACPPKGDKPHHYQFKVWALKTEKIPVDSNSSGALVGYMLNANKIATAEITPVYEIK ... 3.37

Turning now to a further record.
Return reported total protein half-life in vivo. Input sequence: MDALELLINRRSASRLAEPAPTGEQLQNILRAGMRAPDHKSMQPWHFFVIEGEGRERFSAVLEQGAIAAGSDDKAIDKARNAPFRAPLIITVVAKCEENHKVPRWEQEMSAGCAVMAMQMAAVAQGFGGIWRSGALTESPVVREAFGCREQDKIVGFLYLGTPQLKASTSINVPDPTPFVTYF [P0ACY1] 5.49

----------
- experimental-protocol: total protein half-life in vivo (active degradation + dilution); higher = more stable protein
- test-conditions: E. coli NCM3722 delta-lon; growth: N-lim chemostat; doubling time 6 h
quantity-name: total protein half-life in vivo (h)
Numbers only, in h.

Sample records with total protein half-life in vivo:
MLAKRIIPCLDVRDGQVVKGVQFRNHEIIGDIVPLAKRYAEEGADELVFYDITASSDGRVVDKSWVSRVAEVIDIPFCVAGGIKSLEDAAKILSFGADKISINSPALADPTLITRLADRFGVQCIVVGIDTWYDAETGKYHVNQYTGDESRTRVTQWETLDWVQEVQKRGAGEIVLNMMNQDGVRNGYDLEQLKKVREVCHVPLIASGGAGTMEHFLEAFRDADVDGALAASVFHKQIINIGELKAYLATQGVEIRIC ... 4.83
MSTLRLLISDSYDPWFNLAVEECIFRQMPATQRVLFLWRNADTVVIGRAQNPWKECNTRRMEEDNVRLARRSSGGGAVFHDLGNTCFTFMAGKPEYDKTISTSIVLNALNALGVSAEASGRNDLVVKTVEGDRKVSGSAYRETKDRGFHHGTLLLNADLSRLANYLNPDKKKLAAKGITSVRSRVTNLTELLPGITHEQVCEAITEAFFAHYGERVEAEIISPNKTPDLPNFAETFARQSSWEWNFGQAPAFSHLLDERFTWGGVELHFDVEKGHITRAQVFTDSLNPAPLEALAGRLQGCLYRADMLQQECEALLVDFPEQEKELRELSAWMAGAVR ... 5.74
MVKKAIVTAMAVISLFTLMGCNNRAEVDTLSPAQAAELKPMPQSWRGVLPCADCEGIETSLFLEKDGTWVMNERYLGAREEPSSFASYGTWARTADKLVLTDSKGEKSYYRAKGDALEMLDREGNPIESQFNYTLEAAQSSLPMTPMTLRGMYFYMADAATFTDCATGKRFMVANNAELERSYLAARGHSEKPVLLSVEGHFTLEGNPDTGAPTKVLAPDTAGKFYPNQDCSSLGQ ... 6.79
MKKILLMLSLLFFTTAGFSEVSDTLVTGGYDKQAMSDAIKHARKETDKFIEVMNKKDADTFAVKAPITDHGRTEHFWLTDVTYSNGMFIGVISNDPGIVTNVEYGQEWKIKKEDISDWMYTRGDKIYGGYTIDPLLVTYPKEEADELRAKLVR ... 5.28
MLIRVEIPIDAPGIDALLRRSFESDAEAKLVHDLREDGFLTLGLVATDDEGQVIGYVAFSPVDVQGEDLQWVGMAPLAVDEKYRGQGLARQLVYEGLDSLNEFGYAAVVTLGDPALYSRFGFELAAHHDLRCRWPGTESAFQVHRLADDALNGVTGLVEYHEHFNRF ... 4.44

Turning now to a further record.
Return reported total protein half-life in vivo. Input sequence: MSHRDTLFSAPIARLGDWTFDERVAEVFPDMIQRSVPGYSNIISMIGMLAERFVQPGTQVYDLGCSLGAATLSVRRNIHHDNCKIIAIDNSPAMIERCRRHIDAYKAPTPVDVIEGDIRDIAIENASMVVLNFTLQFLEPSERQALLDKIYQGLNPGGALVLSEKFSFEDAKVGELLFNMHHDFKRANGYSELEISQKRSMLENVMLTDSVETHKARLHNAGFEHSELWFQCFNFGSLVALKAEDAA 4.69

----------
- experimental-protocol: total protein half-life in vivo (active degradation + dilution); higher = more stable protein
- test-conditions: wild type E. coli NCM3722; growth: P-lim chemostat; doubling time 6 h
quantity-name: total protein half-life in vivo (h)
One number for each entry, in h.

Sample records with total protein half-life in vivo:
MKRNLLSSAIIVAIMSLGLTGCDDKKAETETLPPANSQPAAPAPEAKPTEAPVAKAEAKPETPAQPVVDEQAVFDEKMDVYIKCYNKLQIPVQRSLARYADWLKDFKQGPTGEERTVYGIYGISESNLAECEKGVKSAVALTPALQPIDGVAVSYIDAAVALGNTINEMDKYYTQENYKDDAFAKGKTLHQTFLKNLEAFEPVAESYHAAIQEINDKRQLAELKNIEEREGKTFHYYSLAVMISAKQINNLISQDKFDAEAAMKKVSELETLVAQAKEADKGGMNFSFINSAGQYQLEAKKYVRRIRDKVPYSDWDKEQLQDANSSWMVEDSFPRALREYNEMVDDYNSLR ... 5.81
MTLTASSSSRAVTNSPVVVALDYHNRDDALAFVDKIDPRDCRLKVGKEMFTLFGPQFVRELQQRGFDIFLDLKFHDIPNTAAHAVAAAADLGVWMVNVHASGGARMMTAAREALVPFGKDAPLLIAVTVLTSMEASDLVDLGMTLSPADYAERLAALTQKCGLDGVVCSAQEAVRFKQVFGQEFKLVTPGIRPQGSEAGDQRRIMTPEQALSAGVDYMVIGRPVTQSVDPAQTLKAINASLQRSA ... 5.08
MAKHLFTSESVSEGHPDKIADQISDAVLDAILEQDPKARVACETYVKTGMVLVGGEITTSAWVDIEEITRNTVREIGYVHSDMGFDANSCAVLSAIGKQSPDINQGVDRADPLEQGAGDQGLMFGYATNETDVLMPAPITYAHRLVQRQAEVRKNGTLPWLRPDAKSQVTFQYDDGKIVGIDAVVLSTQHSEEIDQKSLQEAVMEEIIKPILPAEWLTSATKFFINPTGRFVIGGPMGDCGLTGRKIIVDTYGGMARHGGGAFSGKDPSKVDRSAAYAARYVAKNIVAAGLADRCEIQVSYAIGVAEPTSIMVETFGTEKVPSEQLTLLVREFFDLRPYGLIQMLDLLHPIYKETAAYGHFGREHFPWEKTDKAQLLRDAAGLK [P0A817] ... 5.17

I'm hoping you can list total protein half-life in vivo for every sequence here, please.
1. MKLAVYSTKQYDKKYLQQVNESFGFELEFFDFLLTEKTAKTANGCEAVCIFVNDDGSRPVLEELKKHGVKYIALRCAGFNNVDLDAAKELGLKVVRVPAYDPEAVAEHAIGMMMTLNRRIHRAYQRTRDANFSLEGLTGFTMYGKTAGVIGTGKIGVAMLRILKGFGMRLLAFDPYPSAAALELGVEYVDLPTLFSESDVISLHCPLTPENYHLLNEAAFEQMKNGVMIVNTSRGALIDSQAAIEALKNQKIGSLGMDVYENERDLFFEDKSNDVIQDDVFRRLSACHNVLFTGHQAFLTAEALTSISQTTLQNLSNLEKGETCPNELV
2. MAAKDRIQAIKQMVANDKKVTVSNLSGIFQVTEETIRRDLEKLEDEGFLTRTYGGAVLNTAMLTENIHFYKRASSFYEEKQLIARKALPFIDNKTTMAADSSSTVMELLKLLQDRSGLTLLTNSAEAIHVLAQSEIKVVSTGGELNKNTLSLQGRITKEIIRRYHVDIMVMSCKGLDINSGALDSNEAEAEIKKTMIRQATEVALLVDHSKFDRKAFVQLADFSHINYIITDKSPGAEWIAFCKDNNIQLVW

[5.67, 5.45]

Taken from the supplement of paper PMC11246515.
